HC10 values by entry
- System: red blood cells
- Measurement notes: Hemolysis assay
- Assay type: cell-based, Sprague-Dawley mouse
Where a SMILES comes first, the peptide text is derived from it. [ ]: non-standard residue; d: D form. Gly(N(CH2)2(3-indolyl)) = O=C(O)CNCCc1c[nH]c2ccccc12; Nspe = C[C@H](NCC(=O)O)c1ccccc1; Nlys = NCCCCNCC(=O)O
Observed property: HC10

1. C[C@@H](c1ccccc1)N(CC(N)=O)C(=O)CN(C(=O)CN(CCCCN)C(=O)CN(C(=O)CN(C(=O)CN(CCCCN)C(=O)CN(CCc1c[nH]c2ccccc12)C(=O)CN(CCCCN)C(=O)CN(CCCCN)C(=O)CN(C(=O)CN(C(=O)CNCCCCN)[C@@H](C)c1ccccc1)[C@@H](C)c1ccccc1)[C@@H](C)c1ccccc1)[C@@H](C)c1ccccc1)[C@@H](C)c1ccccc1	>100/>100 μM
2. C[C@@H](c1ccccc1)N(CC(N)=O)C(=O)CN(C(=O)CN(CCCCN)C(=O)CN(C(=O)CN(C(=O)CN(CCCCN)C(=O)CN(CCc1c[nH]c2ccccc12)C(=O)CN(C(=O)CN(CCCCN)C(=O)CN(C(=O)CN(CCCCN)C(=O)CNCCCCN)[C@@H](C)c1ccccc1)[C@@H](C)c1ccccc1)[C@@H](C)c1ccccc1)[C@@H](C)c1ccccc1)[C@@H](C)c1ccccc1	>100/>100 μM
3. C[C@@H](c1ccccc1)N(CC(=O)N(CCCCN)CC(=O)N(CCCCN)CC(=O)N(CCc1c[nH]c2ccccc12)CC(=O)N(CCc1c[nH]c2ccccc12)CC(N)=O)C(=O)CN(CCCCN)C(=O)CN(C(=O)CN(C(=O)CN(CCCCN)C(=O)CN(C(=O)CN(C(=O)CNCCCCN)[C@@H](C)c1ccccc1)[C@@H](C)c1ccccc1)[C@@H](C)c1ccccc1)[C@@H](C)c1ccccc1 [Peptoid 28] (H-[Nlys][Nspe][Nspe][Nlys][Nspe][Nspe][Nlys][Nspe][Nlys][Nlys][Gly(N(CH2)2(3-indolyl))][Gly(N(CH2)2(3-indolyl))]-NH2)	>100/>100 μM
